PROCEDURE DETAILS: Aqueous solubility of L-thyroxine sodium salt in the presence of cyclodextrins
Type: physicochemical
EXPERIMENTAL CONDITIONS: water with γ-cyclodextrin, γ-cyclodextrin 1.0%
Structures can show the parent of a compound that is named as a salt.
OBSERVED PROPERTY: solubility (µg/mL)
Answers are plain numbers, in µg/mL.

-- ask What solubility value was documented for this compound, N[C@@H](Cc1cc(I)c(Oc2cc(I)c(O)c(I)c2)c(I)c1)C(=O)O [L-thyroxine sodium salt, Levothyroxine sodium] ?
-- reply 5480

----------
PROCEDURE DETAILS: Aqueous solubility of L-thyroxine sodium salt in the presence of cyclodextrins
Assay type: physicochemical
EXPERIMENTAL CONDITIONS: water with γ-cyclodextrin, γ-cyclodextrin 15.0%
Counter-ions that a name gives are not always drawn.
OBSERVED PROPERTY: solubility (mg/mL)
Numbers only, in mg/mL.

-- ask Entry N[C@@H](Cc1cc(I)c(Oc2cc(I)c(O)c(I)c2)c(I)c1)C(=O)O [L-thyroxine sodium salt, Levothyroxine sodium] has what solubility?
-- reply 44.2

----------
PROCEDURE DETAILS: Aqueous solubility of L-thyroxine sodium salt in the presence of cyclodextrins
Format: physicochemical
EXPERIMENTAL CONDITIONS: water with randomly-methylated-β-cyclodextrin, randomly-methylated-β-cyclodextrin 10.0%
Counter-ions that a name gives are not always drawn.
OBSERVED PROPERTY: solubility
A complete answer gives the number and then names the unit.

-- ask Endpoint output: solubility of N[C@@H](Cc1cc(I)c(Oc2cc(I)c(O)c(I)c2)c(I)c1)C(=O)O [L-thyroxine sodium salt, Levothyroxine sodium] . Value?
-- reply 10.3 mg/mL

----------
PROCEDURE DETAILS: Aqueous solubility of L-thyroxine sodium salt in the presence of cyclodextrins
Format: physicochemical
EXPERIMENTAL CONDITIONS: water with 2-hydroxypropylated-β-cyclodextrin; 2-hydroxypropylated-β-cyclodextrin 3.0%
Structures can show the parent of a compound that is named as a salt.
OBSERVED PROPERTY: solubility (µg/mL)
Numbers only, in µg/mL.

-- ask Which solubility value belongs to N[C@@H](Cc1cc(I)c(Oc2cc(I)c(O)c(I)c2)c(I)c1)C(=O)O [L-thyroxine sodium salt, Levothyroxine sodium] ?
-- reply 3100

----------
PROCEDURE DETAILS: Aqueous solubility of L-thyroxine sodium salt in the presence of cyclodextrins
Format: physicochemical
EXPERIMENTAL CONDITIONS: water, 10.0% maltosyl-β-cyclodextrin, Maltosyl-β-cyclodextrin 10.0%
Where a name gives a salt, the structure may show the parent alone.
OBSERVED PROPERTY: solubility (µg/mL)
One number for each entry, in µg/mL.

-- ask Consider the molecule N[C@@H](Cc1cc(I)c(Oc2cc(I)c(O)c(I)c2)c(I)c1)C(=O)O [L-thyroxine sodium salt, Levothyroxine sodium] and give its measured solubility.
-- reply 2730

----------
PROCEDURE DETAILS: Aqueous solubility of L-thyroxine sodium salt in the presence of cyclodextrins
Type: physicochemical
EXPERIMENTAL CONDITIONS: water with 2-hydroxypropylated-β-cyclodextrin, 2-hydroxypropylated-β-cyclodextrin 15.0%
Source text: Interaction between L-thyroxine sodium and cyclodextrins in presence of water. One evidence of the interaction between L-thyroxine and cyclodextrins is that the cyclodextrins increase the aqueous solubility of the thyroxine as shown in Table 1. Solubility of L-thyroxine sodium salt in the presence of CDs (mg/ml)
Where a name gives a salt, the structure may show the parent alone.
OBSERVED PROPERTY: solubility (µg/mL)
Give bare numbers, in µg/mL.

-- ask Recorded solubility for N[C@@H](Cc1cc(I)c(Oc2cc(I)c(O)c(I)c2)c(I)c1)C(=O)O [L-thyroxine sodium salt, Levothyroxine sodium] , please?
-- reply 3140

----------
PROCEDURE DETAILS: Aqueous solubility of L-thyroxine sodium salt in the presence of cyclodextrins
Assay type: physicochemical
EXPERIMENTAL CONDITIONS: water, 15.0% dimethyl-β-cyclodextrin, heptakis-2,6-di-O-methyl-β-cyclodextrin 15.0%
Counter-ions that a name gives are not always drawn.
OBSERVED PROPERTY: solubility (mg/mL)
Give bare numbers, in mg/mL.

-- ask Need solubility of N[C@@H](Cc1cc(I)c(Oc2cc(I)c(O)c(I)c2)c(I)c1)C(=O)O [L-thyroxine sodium salt, Levothyroxine sodium] , thanks.
-- reply 14.2

----------
PROCEDURE DETAILS: Aqueous solubility of L-thyroxine sodium salt in the presence of cyclodextrins
Type: physicochemical
EXPERIMENTAL CONDITIONS: water, randomly-methylated-β-cyclodextrin column, 0% (no CDs)
Structures can show the parent of a compound that is named as a salt.
OBSERVED PROPERTY: solubility (µg/mL)
One number for each entry, in µg/mL.

-- ask Need solubility of N[C@@H](Cc1cc(I)c(Oc2cc(I)c(O)c(I)c2)c(I)c1)C(=O)O [L-thyroxine sodium salt, Levothyroxine sodium] , thanks.
-- reply 2000

----------
PROCEDURE DETAILS: Aqueous solubility of L-thyroxine sodium salt in the presence of cyclodextrins
Format: physicochemical
EXPERIMENTAL CONDITIONS: water with randomly-methylated-β-cyclodextrin, randomly-methylated-β-cyclodextrin 15.0%
Counter-ions that a name gives are not always drawn.
OBSERVED PROPERTY: solubility (mg/mL)
Numbers only, in mg/mL.

-- ask Please give the measured solubility for this compound: N[C@@H](Cc1cc(I)c(Oc2cc(I)c(O)c(I)c2)c(I)c1)C(=O)O [L-thyroxine sodium salt, Levothyroxine sodium]
-- reply 16.8

----------
PROCEDURE DETAILS: Aqueous solubility of L-thyroxine sodium salt in the presence of cyclodextrins
Assay type: physicochemical
EXPERIMENTAL CONDITIONS: water, 7.0% maltosyl-β-cyclodextrin, Maltosyl-β-cyclodextrin 7.0%
Excerpt: Interaction between L-thyroxine sodium and cyclodextrins in presence of water. One evidence of the interaction between L-thyroxine and cyclodextrins is that the cyclodextrins increase the aqueous solubility of the thyroxine as shown in Table 1. Solubility of L-thyroxine sodium salt in the presence of CDs (mg/ml)
Structures can show the parent of a compound that is named as a salt.
OBSERVED PROPERTY: solubility

-- ask I would be grateful if you could share the reported solubility for N[C@@H](Cc1cc(I)c(Oc2cc(I)c(O)c(I)c2)c(I)c1)C(=O)O [L-thyroxine sodium salt, Levothyroxine sodium] .
-- reply 2940 µg/mL

----------
PROCEDURE DETAILS: Aqueous solubility of L-thyroxine sodium salt in the presence of cyclodextrins
Type: physicochemical
EXPERIMENTAL CONDITIONS: water with γ-cyclodextrin; γ-cyclodextrin 3.0%
Structures can show the parent of a compound that is named as a salt.
OBSERVED PROPERTY: solubility (mg/mL)
Numbers only, in mg/mL.

-- ask Report solubility for N[C@@H](Cc1cc(I)c(Oc2cc(I)c(O)c(I)c2)c(I)c1)C(=O)O [L-thyroxine sodium salt, Levothyroxine sodium] please.
-- reply 12.1

----------
PROCEDURE DETAILS: Aqueous solubility of L-thyroxine free acid in the presence of γ-cyclodextrin
Assay type: physicochemical
EXPERIMENTAL CONDITIONS: water with γ-cyclodextrin, γ-cyclodextrin 15 g/100 ml, 25° C., 1-st run; read-out: solubility of thyroxine free acid
OBSERVED PROPERTY: solubility (µg/mL)
Numbers only, in µg/mL.

-- ask # get_value(readout='solubility', item= N[C@@H](Cc1cc(I)c(Oc2cc(I)c(O)c(I)c2)c(I)c1)C(=O)O [L-thyroxine free acid] )
-- reply 1020

----------
PROCEDURE DETAILS: Aqueous solubility of L-thyroxine sodium salt in the presence of cyclodextrins
Format: physicochemical
EXPERIMENTAL CONDITIONS: water with randomly-methylated-β-cyclodextrin, randomly-methylated-β-cyclodextrin 1.0%
Structures can show the parent of a compound that is named as a salt.
OBSERVED PROPERTY: solubility
Value and unit, in that order.

-- ask Data request, read-out solubility, for N[C@@H](Cc1cc(I)c(Oc2cc(I)c(O)c(I)c2)c(I)c1)C(=O)O [L-thyroxine sodium salt, Levothyroxine sodium]
-- reply 3700 µg/mL
